All figures here come from paper PMC10343166.

# targetOrTestSystem: T1, Puromycin-sensitive aminopeptidase F433A mutant, with C-terminal polyhistidine sequence (human, UniProt P55786 1-919, F433A)
# T1 construct: Human puromycin-sensitive aminopeptidase (PSA, NPEPPS), UniProt P55786, with F433A; also called PSA^F433A
# T1 sequence (P55786 whole entry F433A): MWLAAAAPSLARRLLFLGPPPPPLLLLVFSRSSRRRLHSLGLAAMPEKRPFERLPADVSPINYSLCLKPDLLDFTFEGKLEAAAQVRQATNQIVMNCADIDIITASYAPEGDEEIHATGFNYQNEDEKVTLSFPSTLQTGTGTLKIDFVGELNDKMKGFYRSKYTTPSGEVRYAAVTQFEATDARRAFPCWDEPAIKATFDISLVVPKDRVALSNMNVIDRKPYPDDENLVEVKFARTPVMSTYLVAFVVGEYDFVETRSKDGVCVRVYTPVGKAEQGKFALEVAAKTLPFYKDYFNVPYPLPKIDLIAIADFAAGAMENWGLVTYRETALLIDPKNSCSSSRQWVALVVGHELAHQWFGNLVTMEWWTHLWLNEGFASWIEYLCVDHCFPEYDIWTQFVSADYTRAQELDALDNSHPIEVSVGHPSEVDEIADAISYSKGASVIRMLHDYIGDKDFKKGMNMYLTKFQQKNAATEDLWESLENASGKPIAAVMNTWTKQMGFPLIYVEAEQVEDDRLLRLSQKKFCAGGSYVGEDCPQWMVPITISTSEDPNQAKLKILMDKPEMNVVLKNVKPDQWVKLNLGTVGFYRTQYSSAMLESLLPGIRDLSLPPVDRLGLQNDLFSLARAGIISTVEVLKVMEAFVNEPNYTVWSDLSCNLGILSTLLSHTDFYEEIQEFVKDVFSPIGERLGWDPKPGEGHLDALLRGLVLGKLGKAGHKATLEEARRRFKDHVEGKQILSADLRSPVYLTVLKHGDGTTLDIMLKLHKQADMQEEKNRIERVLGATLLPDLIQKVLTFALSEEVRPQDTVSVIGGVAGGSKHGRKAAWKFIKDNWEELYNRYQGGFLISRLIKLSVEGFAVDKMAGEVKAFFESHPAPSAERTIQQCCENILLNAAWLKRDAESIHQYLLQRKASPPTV
# testProtocol: competitive inhibition of enzyme activity (Dixon plots); apparent Ki from inhibition of Ala-4MβNA cleavage at increasing peptide concentrations; 20 mM HEPES pH 7.0, 2 mM BME, 37°C; 20 μM (PSA^wt) or 100 μM (PSA^F433A) Ala-4MβNA; triplicate
# particulars: both partners purified

# binder, Ki (µM)
data = [
    ("KKQQQQQQQQQQQQQQQKK (Printed as Lys2Gln15Lys2 (19-mer); In PDB 8SW1 only 6 residues are modelled, deposited as polyalanine; also called PQ; PQ peptide; source: synthetic peptide, bought: Peptidogenic Research and Co; purified (TFA/hexafluoro-2-propanol, centrifugation)) [Polyglutamine peptide Lys2Gln15Lys2]", 4.9),
]
